The entries below are paired with their reported MIC.
Tested on: Mycobacterium tuberculosis
METHOD_SUMMARY: Antimicrobial activity against Mycobacterium tuberculosis My 331/88 after 14 days
Format: functional
EXPERIMENTAL_CONTEXT: 336 h
// note: answer is a bare numeric in µM

Solved cases below.
- CHEMICAL_STRUCTURE: "Cc1ccc(-n2nnnc2S)cc1"
  PARAMETER: "MIC"
  VALUE: 500
- CHEMICAL_STRUCTURE: "Sc1nnnn1-c1ccc(Cl)cc1"
  PARAMETER: "MIC"
  VALUE: 500
- CHEMICAL_STRUCTURE: "c1ccc(CSc2ccncc2)cc1"
  PARAMETER: "MIC"
  VALUE: 125
- CHEMICAL_STRUCTURE: "Sc1nnnn1-c1ccc(Cl)c(Cl)c1"
  PARAMETER: "MIC"
  VALUE: 250
- CHEMICAL_STRUCTURE: "C[C@]12CC[C@@H]3c4ccc(OCCCCCCCBr)cc4CC[C@H]3[C@@H]1CCC2=O"
  PARAMETER: "MIC"
  VALUE: 32

Now turn to the next compound.
Record "C[C@]12CC[C@@H]3c4ccc(OCCCCCCC[n+]5ccc(SCc6ccc(Cl)cc6)cc5)cc4CC[C@H]3[C@@H]1CCC2=O.[Br-]" ; system Mycobacterium tuberculosis; MIC = 16

###

Tested on: Mycobacterium kansasii
METHOD_SUMMARY: Antimicrobial activity against Mycobacterium kansasii My 235/80 after 21 days
Format: functional
EXPERIMENTAL_CONTEXT: 504 h
Here, each record is paired with measured MIC data.
Give your result in µM as a bare value.

- CHEMICAL_STRUCTURE: "C[C@]12CC[C@@H]3c4ccc(OCCCCCCC[n+]5ccc(SCc6ccccc6)cc5)cc4CC[C@H]3[C@@H]1CCC2=O.[Br-]"
  SYSTEM_NAME: "Mycobacterium kansasii"
  MIC, µM: 8
- CHEMICAL_STRUCTURE: "Sc1nnnn1-c1ccc(Cl)c(Cl)c1"
  SYSTEM_NAME: "Mycobacterium kansasii"
  MIC, µM: 500
- CHEMICAL_STRUCTURE: "Cc1ccc(-n2nnnc2SCc2ccccc2)cc1"
  SYSTEM_NAME: "Mycobacterium kansasii"
  MIC, µM: 250
- CHEMICAL_STRUCTURE: "Cc1ccc(CSc2cc[n+](CCCCCCCOc3ccc4c(c3)CC[C@@H]3[C@@H]4CC[C@]4(C)C(=O)CC[C@@H]34)cc2)cc1.[Br-]"
  SYSTEM_NAME: "Mycobacterium kansasii"
  MIC, µM: 16
- CHEMICAL_STRUCTURE: "c1ccc(CSc2nnnn2-c2ccccc2)cc1"
  SYSTEM_NAME: "Mycobacterium kansasii"
  MIC, µM: 125

Consider the additional compound presented here.
Documented MIC of "Clc1ccc(-n2nnnc2SCc2ccccc2)cc1Cl" : 32

###

Test system: Candida albicans
METHOD_SUMMARY: Antifungal activity against Candida albicans ATCC 44859 after 48 hrs
Assay type: functional
EXPERIMENTAL_CONTEXT: ATCC 44859, 48 h
PARAMETER: MIC (µM)
Unit µM implied. Number only.

Per the records, this compound ( "C[C@@H]1[C@H](O)[C@@H](C)/C=C/C=C/C=C/C=C/C=C/C=C/C=C/[C@H](O[C@@H]2O[C@H](C)[C@@H](O)[C@H](N)[C@@H]2O)C[C@@H]2O[C@](O)(C[C@@H](O)C[C@@H](O)[C@H](O)CC[C@@H](O)C[C@@H](O)CC(=O)O[C@H]1C)C[C@H](O)[C@H]2C(=O)O" ) has MIC equal to 0.07
